Taken from paper PMC7017424.

- Substrate: O=[N+]([O-])c1ccc(Cl)c2nonc12
- protocol: purified protein
- Type: biochemical, Oryza sativa
- experimental context: 1.0 mM GSH fixed, NBD-Cl 0.1-1.0 mM, 25 °C, apparent Km, Km above tested range
test readout: kcat (s⁻¹)
Dear colleague, please return just the value in s⁻¹, with no unit written.

# example entries with known answers
OsGSTU17 (Oryza sativa Japonica Group; F162A) (protein, about 25 kDa subunit; dimeric enzyme; mutants L112A and W165A expressed at 20 °C) MAADKGVKVFGMWASPMAIRVEWALRLKGVDYEYVDEDLANKSEALLRHNPVTKKVPVLVHDGKPLAESTVIVEYIDEAWKHGYPIMPSDPFDRAQARFWARFAEEKCNAALYPIFMTTGEEQRKLVHEAQQCLKTLETALEGKKFFGGDAFGYLDIVTGWAAYWLPVIEEACGVEVVTDEALPLMKAWFDRVLAVDAVKAVLPPRDKLVALNKARREQILSA	1.57
OsGSTU17 (Oryza sativa Japonica Group; W161A) (protein, about 25 kDa subunit; dimeric enzyme; mutants L112A and W165A expressed at 20 °C) MAADKGVKVFGMWASPMAIRVEWALRLKGVDYEYVDEDLANKSEALLRHNPVTKKVPVLVHDGKPLAESTVIVEYIDEAWKHGYPIMPSDPFDRAQARFWARFAEEKCNAALYPIFMTTGEEQRKLVHEAQQCLKTLETALEGKKFFGGDAFGYLDIVTGAFAYWLPVIEEACGVEVVTDEALPLMKAWFDRVLAVDAVKAVLPPRDKLVALNKARREQILSA	0.999
OsGSTU17 (Oryza sativa Japonica Group; M17A) (protein, about 25 kDa subunit; dimeric enzyme; mutants L112A and W165A expressed at 20 °C) MAADKGVKVFGMWASPAAIRVEWALRLKGVDYEYVDEDLANKSEALLRHNPVTKKVPVLVHDGKPLAESTVIVEYIDEAWKHGYPIMPSDPFDRAQARFWARFAEEKCNAALYPIFMTTGEEQRKLVHEAQQCLKTLETALEGKKFFGGDAFGYLDIVTGWFAYWLPVIEEACGVEVVTDEALPLMKAWFDRVLAVDAVKAVLPPRDKLVALNKARREQILSA	0.809

Attention now shifts to the item below.
**Query** Which measured kcat value corresponds to OsGSTU17 (Oryza sativa Japonica Group; L112A) (protein, about 25 kDa subunit; dimeric enzyme; mutants L112A and W165A expressed at 20 °C) MAADKGVKVFGMWASPMAIRVEWALRLKGVDYEYVDEDLANKSEALLRHNPVTKKVPVLVHDGKPLAESTVIVEYIDEAWKHGYPIMPSDPFDRAQARFWARFAEEKCNAAAYPIFMTTGEEQRKLVHEAQQCLKTLETALEGKKFFGGDAFGYLDIVTGWFAYWLPVIEEACGVEVVTDEALPLMKAWFDRVLAVDAVKAVLPPRDKLVALNKARREQILSA ?
**Result** 1.75
